- System: BT-549 breast
- PROCEDURE SUMMARY: NCI tumour cell line growth inhibition, 48 h; in the data active = GI50 below about 0.43 µM; inactive = the rest
Your reply should match one of these outcome classes. Yes (active), No (inactive)

Test call for this compound, please: "CCCN(CCC)c1ccc(C=O)cc1"
No

And "C(=N/Nc1ncnc2nc[nH]c12)/c1ccccn1" ?
No

And "C=C1C(=O)O[C@H]2[C@H]1CC/C(C=Nc1ccc(C(F)(F)F)cc1N)=C\CC[C@@]1(C)O[C@@H]21" ?
No

And CC1(C)Cc2cccc(OCC(O)CN3CCN(c4ccc(F)cc4)CC3)c2O1 (centres undefined) ?
No

And "C=C1C(=O)O[C@H]2[C@H]1CC/C(COC(=O)/C=C\C(=O)NCc1ccc(Cn3c(=O)sn(-c4ccc(OC)cc4)c3=O)cc1)=C\CC[C@@]1(C)O[C@@H]21" ?
No

And "COc1ccccc1CNCCCN1C(=O)c2ccc3c4c(ccc(c24)C1=O)C(=O)N(CCCNCCCCNCCCCN)C3=O" ?
No

And "COc1ccc(Nc2c3c4c(cccc4[nH]c2=O)C(=O)c2ccccc2-3)cc1" ?
Yes

And "COc1cc(C(=O)NC2CCN(C)CC2)ccc1Nc1ncc2c(n1)N(C1CCCC1)CC(F)(F)C(=O)N2C" ?
Yes

And "Cc1ccc(Cl)cc1Nc1nc(C(F)(F)F)ccc1C(=O)N/N=C/c1c(Cl)cccc1Cl" ?
No

---

- Test system: NCI/ADR-RES ovarian
- PROCEDURE SUMMARY: NCI tumour cell line growth inhibition, 48 h; in the data active = GI50 below about 0.43 µM; inactive = the rest
Your reply should match one of these outcome classes. active, inactive

Test call for this compound, please: COc1ccc(S(=O)(=O)N2CCN(C(=O)OCc3ccccc3)CC2C(=O)NO)cc1 (centres undefined)
inactive

And "COc1ccc(/C=C2\N=C(c3ccccc3)N(c3cc(C(F)(F)F)ccc3Cl)C2=O)cc1OC" ?
inactive

And "CC(C)c1ccc2c(N=Nc3ccc(S(N)(=O)=O)cc3)c(O)[nH]c2c1" ?
inactive

And "C=C1C(=O)O[C@H]2[C@H]1CC/C(C=Nc1ccc(C(F)(F)F)cc1N)=C\CC[C@@]1(C)O[C@@H]21" ?
inactive

And "C(=N/Nc1ncnc2nc[nH]c12)/c1ccccn1" ?
active

And CC1(C)Cc2cccc(OCC(O)CN3CCN(c4ccc(F)cc4)CC3)c2O1 (centres undefined) ?
inactive

And CCCCCCCCCCCCOC1C(CNC(=O)C2OC3OC(C)(C)OC3C2NC(=O)CN2CCN(c3ccccn3)CC2)OC2OC(C)(C)OC21 (centres undefined) ?
inactive

And "O=C(/C=C/C=C/c1ccccc1)c1ccc(Nc2nc(Nc3ccccc3)nc(Nc3ccccc3)n2)cc1" ?
inactive

And O=C(O)c1cc(N/C=C2\C(=O)c3ccccc3OC2O)ccc1O (centres undefined) ?
inactive

---

- Test system: K-562 leukemia
- PROCEDURE SUMMARY: NCI tumour cell line growth inhibition, 48 h; in the data active = GI50 below about 0.43 µM; inactive = the rest
Your reply should match one of these outcome classes. active, inactive

Test call for this compound, please: "CCOC(=O)c1ccc2c(c1)[n+](=O)c(C(=O)c1ccc3ccccc3c1)c(C(F)(F)F)n2[O-]"
active

And "CCCn1cc(C2=C(c3cn(C)c4ccccc34)C(=O)NC2=O)c2ccccc21" ?
active

And "CC(C)c1ccc2c(N=Nc3ccc(S(N)(=O)=O)cc3)c(O)[nH]c2c1" ?
inactive

And "Cc1ccc(Cl)cc1Nc1nc(C(F)(F)F)ccc1C(=O)N/N=C/c1c(Cl)cccc1Cl" ?
inactive

And "COc1cc(C(=O)NC2CCN(C)CC2)ccc1Nc1ncc2c(n1)N(C1CCCC1)CC(F)(F)C(=O)N2C" ?
active

And "COc1ccc(-c2cc(-c3ccc(O)cc3)nc3nc(=S)[nH]c(N)c23)cc1" ?
inactive

And "O=C(c1ccccc1)c1ccc(Cl)c([N+](=O)[O-])c1" ?
inactive

And "COc1ccc(-c2cn(-c3ccc(Cl)cc3)c(=S)[nH]2)cc1OC" ?
inactive

And CCOC(=O)C1=C(N)Oc2c(sc3c(C)cccc23)C1c1ccc(Cl)cc1 (stereo unspecified) ?
inactive

And Nc1ncnc2c1c(-c1cccc(OCc3ccccc3)c1)cn2C1CC(CN2CCCC2)C1 (stereo unspecified) ?
inactive

And "Fc1ccc(-c2ncn(C3CCNCC3)c2-c2ccnc(Oc3ccccc3)n2)cc1" ?
inactive

And "CCCN(CCC)c1ccc(C=O)cc1" ?
inactive

And CCCCCCCCCCCCOC1C(CNC(=O)C2OC3OC(C)(C)OC3C2NC(=O)CN2CCN(c3ccccn3)CC2)OC2OC(C)(C)OC21 (stereo unspecified) ?
inactive

And CC(C)(C)C(=O)OCOP(=O)(OCOC(=O)C(C)(C)C)C1CCCN(OC(=O)c2ccccc2)C1=O (stereo unspecified) ?
inactive

And "CCOC(=O)c1c[nH]c2c(OCc3ccccc3)c3ccccc3c(O)c2c1=O" ?
inactive

And "O=C(Nc1ncc(Cc2ccccc2)s1)c1ccc2c(c1)OCCO2" ?
active

---

- Tested on: M14 melanoma
- PROCEDURE SUMMARY: NCI tumour cell line growth inhibition, 48 h; in the data active = GI50 below about 0.43 µM; inactive = the rest
Your reply should match one of these outcome classes. TRUE (active), FALSE (inactive)

Test call for this compound, please: "COc1ccc(/C=C2\N=C(c3ccccc3)N(c3cc(C(F)(F)F)ccc3Cl)C2=O)cc1OC"
FALSE

And "O=C(N/N=C/c1coc2ccc(Cl)cc2c1=O)c1ccncc1" ?
FALSE

And "CC(C)c1ccc2c(N=Nc3ccc(S(N)(=O)=O)cc3)c(O)[nH]c2c1" ?
FALSE

And "COc1ccc2nc3cccc([N+](=O)[O-])c3c(NCCN(CCO)CCO)c2c1" ?
TRUE

And "COc1ccc(-c2cc(-c3ccc(O)cc3)nc3nc(=S)[nH]c(N)c23)cc1" ?
FALSE

And "CCCCCCCCCCCC1=NC(C)(C)CN1CCO" ?
FALSE

And "COc1cc(C(=O)NC2CCN(C)CC2)ccc1Nc1ncc2c(n1)N(C1CCCC1)CC(F)(F)C(=O)N2C" ?
TRUE

And "C[As](C)Sc1ccnc(S[As](C)C)n1" ?
FALSE

And Cn1cc(C2=C(c3c4n(c5ccccc35)CC(CN)C4)C(=O)NC2=O)c2ccccc21 (centres undefined) ?
FALSE

---

- System: UO-31 renal
- PROCEDURE SUMMARY: NCI tumour cell line growth inhibition, 48 h; in the data active = GI50 below about 0.43 µM; inactive = the rest
Your reply should match one of these outcome classes. 1 (active), 0 (inactive)

Test call for this molecule, please: "C=C1C(=O)O[C@H]2[C@H]1CC/C(C=Nc1ccc(C(F)(F)F)cc1N)=C\CC[C@@]1(C)O[C@@H]21"
0

And "O=C(CSc1nc2ccc([N+](=O)[O-])cc2[nH]1)Nc1cccc(Cl)c1" ?
0

And "O=C(N/N=C/c1coc2ccc(Cl)cc2c1=O)c1ccncc1" ?
0

And "O=C(CCc1nnc(-c2c(Cl)cccc2Cl)o1)c1nc2ccccc2[nH]1" ?
0

And Cn1cc(C2=C(c3c4n(c5ccccc35)CC(CN)C4)C(=O)NC2=O)c2ccccc21 (stereo not given) ?
0

And "O=C(CCCCC(=O)N/N=C\c1ccccc1Cl)N/N=C\c1ccccc1Cl" ?
0

And "CN(C)CCCNC(=O)c1cc(NC(=O)CCNC(=O)c2ccc3c(c2)C(=O)c2ccccc2C3=O)cn1C" ?
0

And "COc1cc(-c2cc(/C=C/C(=O)c3ccc4c(c3)OCO4)[nH]n2)cc(OC)c1OC" ?
0

And CC1(C)Cc2cccc(OCC(O)CN3CCN(c4ccc(F)cc4)CC3)c2O1 (stereo not given) ?
0

And "COc1ccc(-c2cn(-c3ccc(Cl)cc3)c(=S)[nH]2)cc1OC" ?
0

And "COc1cc(C(=O)NC2CCN(C)CC2)ccc1Nc1ncc2c(n1)N(C1CCCC1)CC(F)(F)C(=O)N2C" ?
0

And CCCCCCCCCCCCOC1C(CNC(=O)C2OC3OC(C)(C)OC3C2NC(=O)CN2CCN(c3ccccn3)CC2)OC2OC(C)(C)OC21 (stereo not given) ?
0

And "Fc1ccc(-c2ncn(C3CCNCC3)c2-c2ccnc(Oc3ccccc3)n2)cc1" ?
0

And "O=S(=O)(O)c1ccc(Cl)cc1.[Cd]" ?
0

And "CCCn1cc(C2=C(c3cn(C)c4ccccc34)C(=O)NC2=O)c2ccccc21" ?
0

And "Cc1ccc(Cl)cc1Nc1nc(C(F)(F)F)ccc1C(=O)N/N=C/c1c(Cl)cccc1Cl" ?
0

And O=C(O)c1cc(N/C=C2\C(=O)c3ccccc3OC2O)ccc1O (stereo not given) ?
0

And "CCOC(=O)c1c[nH]c2c(OCc3ccccc3)c3ccccc3c(O)c2c1=O" ?
0

And "O=C(/C=C/C=C/c1ccccc1)c1ccc(Nc2nc(Nc3ccccc3)nc(Nc3ccccc3)n2)cc1" ?
0

And "COc1ccc2nc3cccc([N+](=O)[O-])c3c(NCCN(CCO)CCO)c2c1" ?
1
